# Test system: KM12 colon
# METHOD: NCI tumour cell line growth inhibition, 48 h
MEASURED METRIC: TGI

>>> assay_result("CCc1ccc2c(c1)N(CCO)C1=C(C(=O)OC1)C2c1cccc(Br)c1 (stereo unspecified)")
"12.5 µM"
>>> assay_result("O=C(NC1CCCCC1)NS(=O)(=O)c1ccc2c(c1)CCC2")
"> 100 µM"
>>> assay_result("O=C1C(Cl)=C(Nc2ccc(S(=O)(=O)O)cc2)C(=O)c2ccccc21")
"56.3 µM"
>>> assay_result("CC/C=C\\C/C=C\\C/C=C\\CCCCCCCC(=O)OCC(O)CO (stereo unspecified)")
"> 70.9 µM"
>>> assay_result("O=[N+]([O-])c1nccn1CCCNc1ccnc2cc(Cl)ccc12")
"> 26.6 µM"
>>> assay_result("CN1c2ccccc2C(=O)NC12CCN(CCCC(=O)c1ccc(F)cc1)CC2")
"> 100 µM"
